Target: recombinant human SYK360-635 (Homo sapiens, UniProt P43405)
Construct: truncated construct of Spleen Tyrosine Kinase aa 360-635
Experiment: SYK kinase assay, 33P ATP filtration (ENZYME_FILTRATION_IC50)
Conditions: SYK aa 360-635 0.5 nM, ATP 20 μM, peptide 5 μM, 30° C. 15 min
Experimental: Determination of IC50 of Spleen Tyrosine Kinase (SYK) Inhibition: SYK kinase assay is a standard kinase assay adapted to a 96 well plate format. […] Phosphorylated products were detected upon termination of reactions with EDTA and the addition of Streptavidin coated beads. […] The percent inhibition was calculated based on the uninhibited enzyme rate: % Inhibition=100/(1+(IC50/Inhibitor conc)^n) […]
pIC50: −log10 of the molar value.
Label condition met when pIC50 >= 7; otherwise condition not met.

COMPOUND | GROUP
C[C@@H](CO)NC(=O)c1c[nH]nc1-c1nc2ccccc2s1 [Compound I-12] | condition not met
O=C(Nc1c[nH]nc1-c1nc2ccccc2s1)C1CCCC1 [Compound I-5] | condition not met
COc1cccc(-c2n[nH]cc2C(=O)NC(C)(C)C)n1 [Compound I-11] | condition not met
O=C(NC1CCOCC1)c1c[nH]nc1-c1nc2c(s1)CCC2 [Compound I-22] | condition not met
CC(=O)OCC(C)(C)C(=O)Nc1c[nH]nc1-c1nc2ccccc2[nH]1 [Compound I-34] | condition not met
CC(C)(C)C(=O)Nc1c[nH]nc1-c1nc2ccccc2[nH]1 [Compound I-31] | condition met
CC(C)C(=O)Nc1c[nH]nc1-c1nc2ccccc2[nH]1 [Compound I-30] | condition met
CCOC(=O)c1c[nH]nc1-c1nc2c(s1)CCCC2 [Compound I-14] | condition not met
Cc1ccc2[nH]c(-c3ncsc3C(=O)NC(C)(C)C)nc2c1 [Compound I-29] | condition met
O=C(Nc1c[nH]nc1-c1nc2ccccc2s1)C1CC1 [Compound I-6] | condition not met
O=C(NC1CCCC1)c1c[nH]nc1-c1nc(-c2ccccc2)cs1 [Compound I-20] | condition not met
Cc1ccc2sc(-c3n[nH]cc3C(=O)NC(C)(C)C)cc2c1 [Compound I-10] | condition not met
c1cncc(Nc2scnc2-c2nc3cnccc3[nH]2)c1 [Compound I-41] | condition not met
CC(C)(CO)NC(=O)c1c[nH]nc1-c1nc2ccccc2s1 [Compound I-7] | condition not met
Cc1ccc2[nH]c(-c3ncsc3NCC(C)C)nc2c1 [Compound I-44] | condition not met
Cc1ccc2[nH]c(-c3ncsc3NC3CCCC3)nc2c1 [Compound I-43] | condition not met
CC(C)(C)NC(=O)c1c[nH]nc1-c1nc2c(s1)CCC2 [Compound I-18] | condition not met
CC(C)(C)NC(=O)c1c[nH]nc1-c1nc(-c2ccccc2)cs1 [Compound I-16] | condition not met
CC(C)(C)C(=O)Nc1c[nH]nc1-c1nc2ccccc2s1 [Compound I-4] | condition not met
CCOC(=O)c1c[nH]nc1-c1nc2c(s1)CCC2 [Compound I-15] | condition not met
CC(C)(CO)C(=O)Nc1c[nH]nc1-c1nc2ccccc2s1 [Compound I-28] | condition not met
O=C(NC1CCOCC1)c1c[nH]nc1-c1nc2c(s1)CCCC2 [Compound I-23] | condition not met
O=C(Nc1c[nH]nc1-c1nc2ccccc2s1)C1CCOCC1 [Compound I-25] | condition not met
O=C(NC1CCOCC1)c1c[nH]nc1-c1nc(-c2ccccc2)cs1 [Compound I-21] | condition not met
Cc1ccc2sc(-c3n[nH]cc3C(=O)NC(C)(C)CO)cc2c1 [Compound I-9] | condition not met
O=C(Nc1c[nH]nc1-c1nc2ccccc2[nH]1)C1CCCC1 [Compound I-32] | condition met
CC(C)(CO)C(=O)Nc1c[nH]nc1-c1nc2ccccc2[nH]1 [Compound I-35] | condition met
